Source listed as patent US5925769A.

- studySystem: 5-LO (Rattus norvegicus, UniProt P12527)
- Construct: the supernatant was saved as the source of enzymes; endogenous in cells; host or cells: RBL-1 (rat basophilic leukemia) cells
- Sequence (P12527 whole entry): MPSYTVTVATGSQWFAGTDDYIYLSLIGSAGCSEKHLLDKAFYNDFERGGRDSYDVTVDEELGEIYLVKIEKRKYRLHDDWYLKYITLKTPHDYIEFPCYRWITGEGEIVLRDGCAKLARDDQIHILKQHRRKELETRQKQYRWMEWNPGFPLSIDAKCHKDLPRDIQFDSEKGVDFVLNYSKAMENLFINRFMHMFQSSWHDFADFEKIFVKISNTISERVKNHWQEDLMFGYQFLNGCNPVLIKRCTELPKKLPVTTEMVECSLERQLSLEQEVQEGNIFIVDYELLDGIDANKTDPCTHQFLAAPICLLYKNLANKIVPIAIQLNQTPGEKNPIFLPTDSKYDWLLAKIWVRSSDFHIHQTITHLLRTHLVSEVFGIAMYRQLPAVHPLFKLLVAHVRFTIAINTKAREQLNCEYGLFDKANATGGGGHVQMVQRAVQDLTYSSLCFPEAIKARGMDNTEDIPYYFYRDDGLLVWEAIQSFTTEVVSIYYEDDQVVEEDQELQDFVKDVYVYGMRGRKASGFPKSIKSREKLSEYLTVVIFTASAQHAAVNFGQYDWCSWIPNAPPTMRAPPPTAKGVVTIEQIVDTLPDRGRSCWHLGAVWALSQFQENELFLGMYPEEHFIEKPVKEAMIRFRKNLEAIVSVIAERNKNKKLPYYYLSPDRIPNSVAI
- experimentNotes: Procedure II: 5-LO activity (5-HETE) in broken RBL-1 cells (homogenate supernatant)
- Assay type: biochemical
- cond: 20 min; @ 10 .quadrature.M; RBL-1 broken cell supernatant; read-out: Proc. II 5-LO % inhibition
So I've got a bunch of compounds here, and I need their inhibition at 10 µM values.
Quick reminder: number only, in %, skip the unit.

[ask] Fill in: inhibition at 10 µM of COC(=O)N(O)CC#Cc1cc(-c2ccc(C)cc2)n(-c2ccc(OC)cc2)n1 is ___
[reply] 100

[ask] Entry under review: COc1ccc(-n2nc(C#CCN(O)C(C)=O)cc2-c2ccc(C)cc2)cc1 . Reported inhibition at 10 µM?
[reply] 100

[ask] For the compound shown here, CCCCCCCC(=O)N(O)C(C)C#Cc1cc(-c2ccc(Cl)cc2)n(-c2ccc(OC)cc2)n1 (stereo not shown) , give the reported inhibition at 10 µM.
[reply] 100

[ask] Look up inhibition at 10 µM: CCC(=O)N(O)C(C)C#Cc1cc(-c2ccc(Cl)cc2)n(-c2ccc(OC)cc2)n1 (stereo not shown)
[reply] 100

[ask] Field request: inhibition at 10 µM | item: COC(=O)N(O)C(C)C#Cc1cc(-c2ccc(Cl)cc2)n(-c2ccc(OC)cc2)n1 (stereo not shown)
[reply] 77

[ask] Look at this compound and give its reported inhibition at 10 µM. COc1ccc(-n2nc(C#CC(C)N(O)C(=O)CNCCCN(C)C)cc2-c2ccc(C)cc2)cc1 (stereo not shown)
[reply] 29

[ask] Recorded inhibition at 10 µM for CCc1ccc(-c2cc(C#CC(C)N(O)C(=O)C(C)C)nn2-c2ccc(OC)cc2)cc1 (stereo not shown) , please?
[reply] 93
